Biological target: AChE from electric eel (Electrophorus electricus, UniProt O42275)
Sequence (O42275 24-633): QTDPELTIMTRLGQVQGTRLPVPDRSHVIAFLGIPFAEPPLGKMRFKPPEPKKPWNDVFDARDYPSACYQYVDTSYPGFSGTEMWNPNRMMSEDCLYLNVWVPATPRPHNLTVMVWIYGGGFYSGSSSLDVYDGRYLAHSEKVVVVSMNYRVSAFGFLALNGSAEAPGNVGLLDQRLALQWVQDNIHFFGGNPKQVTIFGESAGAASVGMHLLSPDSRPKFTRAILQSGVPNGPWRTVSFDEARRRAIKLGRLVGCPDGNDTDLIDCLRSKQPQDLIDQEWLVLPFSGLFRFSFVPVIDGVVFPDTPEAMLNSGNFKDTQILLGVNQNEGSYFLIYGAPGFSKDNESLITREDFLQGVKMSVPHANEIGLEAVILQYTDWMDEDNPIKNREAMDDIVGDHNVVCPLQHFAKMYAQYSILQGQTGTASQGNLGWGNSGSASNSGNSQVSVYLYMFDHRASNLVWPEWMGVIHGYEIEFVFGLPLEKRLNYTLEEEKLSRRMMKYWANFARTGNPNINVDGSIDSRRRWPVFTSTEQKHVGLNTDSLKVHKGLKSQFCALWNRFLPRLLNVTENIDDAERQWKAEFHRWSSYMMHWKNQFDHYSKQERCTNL
Each record here notes measured IC50.

molecule: O=S(=O)(F)Oc1cc(-c2ccccc2)nn1-c1ccccn1 [Compound K7]
IC50 (µM): 19.4

molecule: Cc1ccc(-n2nc(C(C)C)cc2OS(=O)(=O)F)cc1 [Compound K22]
IC50 (µM): 2.6

molecule: O=S(=O)(F)Oc1cc(C2CC2)nn1-c1ccccc1 [Compound K26]
IC50 (µM): 4.82

molecule: CC(C)c1cc(OS(=O)(=O)F)n(-c2ccc(F)cc2)n1 [Compound K21]
IC50 (µM): 7.79

###

Target: AChE from electric eel (Electrophorus electricus, UniProt O42275)
Construct: AChE from electric eel (C3389-500UN; Sigma); purchased Sigma C3389-500UN
Assay: EeAChE inhibition assay (Ellman's method)
Assay type: biochemical
Conditions: read-out: AChE % inhibition at 20 µM, 20 µM, na = no inhibitory activity at 20 µM
Entries are grouped by inhibition at 20 µM into these classes: lower level (below 30%), middle level (30% to below 40%), upper level (40% or more)

test smiles: Cc1cc(OS(=O)(=O)F)n(-c2ccc(C)c(C)c2)n1
tested on: AChE from electric eel (Electrophorus electricus, UniProt O42275)
discrete label: lower level

test smiles: O=S(=O)(F)Oc1cc(-c2ccccc2)nn1-c1ccc(F)cc1
tested on: AChE from electric eel (Electrophorus electricus, UniProt O42275)
discrete label: lower level

test smiles: O=C1CC(c2ccccc2)=NN1c1ccc(F)cc1
tested on: AChE from electric eel (Electrophorus electricus, UniProt O42275)
discrete label: middle level

test smiles: Cc1ccc(-n2nc(-c3ccccc3)cc2OS(=O)(=O)F)cc1
tested on: AChE from electric eel (Electrophorus electricus, UniProt O42275)
discrete label: lower level

test smiles: O=C1CC(c2ccccc2)=NN1c1ccc(Cl)cc1
tested on: AChE from electric eel (Electrophorus electricus, UniProt O42275)
discrete label: lower level

test smiles: COc1ccc(-n2nc(-c3ccccc3)cc2OS(=O)(=O)F)cc1
tested on: AChE from electric eel (Electrophorus electricus, UniProt O42275)
discrete label: lower level

test smiles: Cc1cc(OS(=O)(=O)F)n(-c2ccccc2)n1
tested on: AChE from electric eel (Electrophorus electricus, UniProt O42275)
discrete label: middle level

test smiles: O=S(=O)(F)Oc1cc(-c2ccccc2)nn1C1CCCCC1
tested on: AChE from electric eel (Electrophorus electricus, UniProt O42275)
discrete label: lower level

test smiles: O=S(=O)(F)Oc1cc(-c2ccccc2)nn1-c1ccccc1
tested on: AChE from electric eel (Electrophorus electricus, UniProt O42275)
discrete label: middle level

test smiles: Cc1cc(OS(=O)(=O)F)n(-c2ccc(Cl)cc2)n1
tested on: AChE from electric eel (Electrophorus electricus, UniProt O42275)
discrete label: upper level

test smiles: CC(C)c1cc(OS(=O)(=O)F)n(-c2ccccc2)n1
tested on: AChE from electric eel (Electrophorus electricus, UniProt O42275)
discrete label: upper level

test smiles: CCCc1cc(OS(=O)(=O)F)n(-c2ccc(Cl)cc2)n1
tested on: AChE from electric eel (Electrophorus electricus, UniProt O42275)
discrete label: upper level

###

Experiment: in vitro
Settings: PAMPA, pH 7.4
Each record here notes measured Papp.
readout name: Papp (×10⁻⁶ cm/s)

test smiles: Clc1cccc(Cl)c1N=C1NCCN1
units: ×10⁻⁶ cm/s
value reported: 8.3
--
test smiles: CC(=O)[C@H]1CC[C@H]2[C@@H]3CCC4=CC(=O)CC[C@]4(C)[C@H]3CC[C@]12C
units: ×10⁻⁶ cm/s
value reported: 8.1
--
test smiles: O=S(=O)(F)Oc1cc(-c2ccccc2)nn1-c1ccc(Cl)cc1
units: ×10⁻⁶ cm/s
value reported: 7.2
--
test smiles: CN1C(C(=O)Nc2ccccn2)=C(O)c2ccccc2S1(=O)=O
units: ×10⁻⁶ cm/s
value reported: 2.23

###

Target: eqBuChE (Equus caballus)
Construct: BuChE from horse serum (C4290-1KU; Sigma)
Sequence (P81908 whole entry): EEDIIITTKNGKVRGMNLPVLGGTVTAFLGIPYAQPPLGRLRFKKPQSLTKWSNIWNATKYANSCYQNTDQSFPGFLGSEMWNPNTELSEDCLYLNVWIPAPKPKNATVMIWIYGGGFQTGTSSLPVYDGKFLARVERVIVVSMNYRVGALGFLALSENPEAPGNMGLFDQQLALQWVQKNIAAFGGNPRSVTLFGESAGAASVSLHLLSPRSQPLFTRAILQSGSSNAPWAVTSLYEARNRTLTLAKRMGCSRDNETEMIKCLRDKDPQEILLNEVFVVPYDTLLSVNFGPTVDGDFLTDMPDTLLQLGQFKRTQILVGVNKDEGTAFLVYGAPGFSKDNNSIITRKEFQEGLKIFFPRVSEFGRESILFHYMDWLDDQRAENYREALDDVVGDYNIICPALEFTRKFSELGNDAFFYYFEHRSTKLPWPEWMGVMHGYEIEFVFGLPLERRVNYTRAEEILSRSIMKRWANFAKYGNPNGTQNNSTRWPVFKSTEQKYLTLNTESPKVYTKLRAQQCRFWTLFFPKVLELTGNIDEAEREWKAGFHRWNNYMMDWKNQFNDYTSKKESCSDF
Test: Kinetic study of eqBuChE inhibition
Conditions: Lineweaver-Burk secondary plots, read-out: dissociation constant Ki
pKi: −log10 of the molar value.

test smiles: O=S(=O)(F)Oc1cc(-c2ccccc2)nn1-c1ccc(Cl)cc1
pKi: 6.11

###

Biological target: AChE from electric eel (Electrophorus electricus)
Construct: AChE from electric eel (C3389-500UN; Sigma); purchased Sigma C3389-500UN
Test: EeAChE inhibition assay (Ellman's method)
Assay type: biochemical
Settings: read-out: AChE % inhibition at 20 µM, 20 µM, na = no inhibitory activity at 20 µM
Each record here notes measured inhibition at 20 µM.

test smiles: Cc1cc(OS(=O)(=O)F)n(-c2ccc(F)cc2)n1
units: %
inhibition at 20 µM: 48.2

test smiles: Cc1ccc(-n2nc(C(C)C)cc2OS(=O)(=O)F)cc1C
units: %
inhibition at 20 µM: 21.4

test smiles: O=S(=O)(F)Oc1cc(-c2ccccc2)nn1-c1ccc(Cl)cc1
units: %
inhibition at 20 µM: 26.3

test smiles: O=S(=O)(F)Oc1cc(-c2ccccc2)n[nH]1
units: %
inhibition at 20 µM: 32

test smiles: Cc1ccc(N2N=C(c3ccccc3)CC2=O)cc1C
units: %
inhibition at 20 µM: 10.7

test smiles: O=C1CC(c2ccccc2)=NN1c1ccccc1
units: %
inhibition at 20 µM: 8.8

test smiles: Cc1cc(OS(=O)(=O)F)n(-c2ccc(Br)cc2)n1
units: %
inhibition at 20 µM: 37.2

test smiles: CCCc1cc(OS(=O)(=O)F)n(-c2ccc(OC)cc2)n1
units: %
inhibition at 20 µM: 10.3

test smiles: Cc1ccc(-n2nc(-c3ccccc3)cc2OS(=O)(=O)F)cc1C
units: %
inhibition at 20 µM: 24.4

test smiles: Cc1cccc(-n2nc(C)cc2OS(=O)(=O)F)c1
units: %
inhibition at 20 µM: 33.4
